Taken from patent US20210196796A1.

- experimental_system: T1, orthogonal hCD122 receptor (hoRb), hCD122 with H133D and Y134F (human, UniProt P14784 27-550); also: reference of the scale not given here
- T1 sequence: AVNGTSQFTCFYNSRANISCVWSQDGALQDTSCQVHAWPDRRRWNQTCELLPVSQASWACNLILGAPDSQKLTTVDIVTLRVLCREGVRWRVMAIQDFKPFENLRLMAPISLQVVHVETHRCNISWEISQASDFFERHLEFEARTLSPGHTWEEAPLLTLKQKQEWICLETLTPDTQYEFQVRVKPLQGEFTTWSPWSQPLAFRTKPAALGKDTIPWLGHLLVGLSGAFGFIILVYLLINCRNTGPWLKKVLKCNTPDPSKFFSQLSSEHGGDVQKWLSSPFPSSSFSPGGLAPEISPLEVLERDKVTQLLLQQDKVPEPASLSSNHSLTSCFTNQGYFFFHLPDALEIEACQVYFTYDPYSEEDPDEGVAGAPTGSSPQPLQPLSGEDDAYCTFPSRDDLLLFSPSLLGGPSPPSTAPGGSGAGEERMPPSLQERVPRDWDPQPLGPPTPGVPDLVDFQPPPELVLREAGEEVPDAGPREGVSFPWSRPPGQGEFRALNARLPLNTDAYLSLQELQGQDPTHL
- experiment_description: cell-based or functional assay
attribute_measured: Relative Proliferation Fold Change 3F8 1:2 (fold)

binder	unit_of_measure	measured_value
L18W, SQVLKA (ligand) APTSSSTKKTQLQLSQLWVLLKAILNGINNYKNPKLTRMLTFKFYMPKKATELKHLQCLEEELKPLEEVLNLAQSKNFHLRPRDLISNINVIVLELKGSETTFMCEYADETATIVEFLNRWITFCQSIISTLT	fold	138
Q126E, SQVLKA (ligand) APTSSSTKKTQLQLSQLLVLLKAILNGINNYKNPKLTRMLTFKFYMPKKATELKHLQCLEEELKPLEEVLNLAQSKNFHLRPRDLISNINVIVLELKGSETTFMCEYADETATIVEFLNRWITFCESIISTLT	fold	129
